Biological target: FBXO44^FBA (Homo sapiens, UniProt Q9H4M3)
Construct: we expressed and purified only this domain for all in vitro studies; 6xHis (N, cleaved yes); MBP (N, cleaved yes); made in house; host or cells: Escherichia coli Rosetta BL21 (λDE3)
Sequence (Q9H4M3 71-252 limits assumed): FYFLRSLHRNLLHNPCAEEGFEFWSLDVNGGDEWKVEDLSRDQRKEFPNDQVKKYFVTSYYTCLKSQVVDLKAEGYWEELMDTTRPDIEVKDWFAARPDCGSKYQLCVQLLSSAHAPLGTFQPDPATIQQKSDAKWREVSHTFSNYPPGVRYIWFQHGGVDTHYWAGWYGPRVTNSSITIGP
Experiment: Peptide microarray (PEPperPRINT), FLAG-FBXO44^FBA binding
Conditions: Table S1; RGS2^5–16 single-residue substitution; 2 μg/ml FBXO44^FBA overnight at 4 °C, PBS 0.005% Tween pH 7.4, anti-FLAG DyLight800 fluorescence; three independent experiments with three technical replicates each
propertyLabel: Mean % difference from parent peptide (FLAG immunoreactivity) (%)
Numbers only, in %.

Previously resolved entries follow.
C13V: array RGS2^5–16 peptide, C13 substituted by V (MFLAVQHDVRPM; UniProt P41220 5-16, looked up, variant C13V): -88.12
C13S: array RGS2^5–16 peptide, C13 substituted by S (MFLAVQHDSRPM; UniProt P41220 5-16, looked up, variant C13S): -87.05
P15K: array RGS2^5–16 peptide, P15 substituted by K (MFLAVQHDCRKM; UniProt P41220 5-16, looked up, variant P15K): 52.32

Can you give me Mean % difference from parent peptide (FLAG immunoreactivity) for all of these, one by one?
1. D12G: array RGS2^5–16 peptide, D12 substituted by G (MFLAVQHGCRPM; UniProt P41220 5-16, looked up, variant D12G)
2. C13M: array RGS2^5–16 peptide, C13 substituted by M (MFLAVQHDMRPM; UniProt P41220 5-16, looked up, variant C13M)
3. A8R: array RGS2^5–16 peptide, A8 substituted by R (MFLRVQHDCRPM; UniProt P41220 5-16, looked up, variant A8R)
4. M16K: array RGS2^5–16 peptide, M16 substituted by K (MFLAVQHDCRPK; UniProt P41220 5-16, looked up, variant M16K)

1. 28.74
2. -88.01
3. 27.84
4. 38.94

Can you give me Mean % difference from parent peptide (FLAG immunoreactivity) for all of these, one by one?
1. P15R: array RGS2^5–16 peptide, P15 substituted by R (MFLAVQHDCRRM)
2. C13E: array RGS2^5–16 peptide, C13 substituted by E (MFLAVQHDERPM; UniProt P41220 5-16, looked up, variant C13E)

158
-87.12

Can you give me Mean % difference from parent peptide (FLAG immunoreactivity) for all of these, one by one?
1. D12L: array RGS2^5–16 peptide, D12 substituted by L (MFLAVQHLCRPM; UniProt P41220 5-16, looked up, variant D12L)
2. C13K: array RGS2^5–16 peptide, C13 substituted by K (MFLAVQHDKRPM; UniProt P41220 5-16, looked up, variant C13K)
3. D12M: array RGS2^5–16 peptide, D12 substituted by M (MFLAVQHMCRPM; UniProt P41220 5-16, looked up, variant D12M)

31.38
-53.92
42.32

----------
Target: FBXO44^FBA (Homo sapiens, UniProt Q9H4M3)
Construct: we expressed and purified only this domain for all in vitro studies; 6xHis (N, cleaved yes); MBP (N, cleaved yes); made in house; host or cells: Escherichia coli Rosetta BL21 (λDE3)
Sequence (Q9H4M3 71-252 limits assumed): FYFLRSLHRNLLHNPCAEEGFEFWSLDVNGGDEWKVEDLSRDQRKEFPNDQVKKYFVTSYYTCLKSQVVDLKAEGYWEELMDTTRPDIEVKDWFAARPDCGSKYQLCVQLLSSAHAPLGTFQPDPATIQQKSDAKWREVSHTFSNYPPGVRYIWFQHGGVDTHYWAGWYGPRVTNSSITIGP
Assay: Peptide microarray (PEPperPRINT), FLAG-FBXO44^FBA binding
Settings: Table S1; RGS2^5–16 single-residue substitution; 2 μg/ml FBXO44^FBA overnight at 4 °C, PBS 0.005% Tween pH 7.4, anti-FLAG DyLight800 fluorescence; three independent experiments with three technical replicates each
Excerpt: To do so, we utilized a custom peptide microarray (PEPperPRINT GmbH). The design of this array was twofold: (1) substitution at each position with every other natural eukaryotic amino acid; (2) truncation of the peptide from the C terminus. We assessed the binding of FLAG-FBXO44^FBA to the array utilizing fluorescence immunoreactivity corresponding to the amount of FLAG-FBXO44^FBA bound. […] Substitutions at Asp^12 were not only tolerated but also seemed to improve binding in every case (Fig. 3B). […]
Note to self: Mean % difference from parent peptide (FLAG immunoreactivity) under 40% means Satisfied, ties and anything higher get Not satisfied.

C13F: array RGS2^5–16 peptide, C13 substituted by F (MFLAVQHDFRPM; UniProt P41220 5-16, looked up, variant C13F): Satisfied

Does the reported Mean % difference from parent peptide (FLAG immunoreactivity) of the following substance sit strictly below 40%? C13W: array RGS2^5–16 peptide, C13 substituted by W (MFLAVQHDWRPM; UniProt P41220 5-16, looked up, variant C13W)
Satisfied

Does the reported Mean % difference from parent peptide (FLAG immunoreactivity) of the following substance sit strictly below 40%? M16R: array RGS2^5–16 peptide, M16 substituted by R (MFLAVQHDCRPR; UniProt P41220 5-16, looked up, variant M16R)
Not satisfied

Does the reported Mean % difference from parent peptide (FLAG immunoreactivity) of the following substance sit strictly below 40%? D12N: array RGS2^5–16 peptide, D12 substituted by N (MFLAVQHNCRPM; UniProt P41220 5-16, looked up, variant D12N)
Not satisfied

Does the reported Mean % difference from parent peptide (FLAG immunoreactivity) of the following substance sit strictly below 40%? D12I: array RGS2^5–16 peptide, D12 substituted by I (MFLAVQHICRPM; UniProt P41220 5-16, looked up, variant D12I)
Not satisfied

Does the reported Mean % difference from parent peptide (FLAG immunoreactivity) of the following substance sit strictly below 40%? D12S: array RGS2^5–16 peptide, D12 substituted by S (MFLAVQHSCRPM; UniProt P41220 5-16, looked up, variant D12S)
Not satisfied

Does the reported Mean % difference from parent peptide (FLAG immunoreactivity) of the following substance sit strictly below 40%? C13G: array RGS2^5–16 peptide, C13 substituted by G (MFLAVQHDGRPM; UniProt P41220 5-16, looked up, variant C13G)
Satisfied

Does the reported Mean % difference from parent peptide (FLAG immunoreactivity) of the following substance sit strictly below 40%? D12R: array RGS2^5–16 peptide, D12 substituted by R (MFLAVQHRCRPM)
Not satisfied

Does the reported Mean % difference from parent peptide (FLAG immunoreactivity) of the following substance sit strictly below 40%? D12P: array RGS2^5–16 peptide, D12 substituted by P (MFLAVQHPCRPM; UniProt P41220 5-16, looked up, variant D12P)
Not satisfied

Does the reported Mean % difference from parent peptide (FLAG immunoreactivity) of the following substance sit strictly below 40%? D12K: array RGS2^5–16 peptide, D12 substituted by K (MFLAVQHKCRPM; UniProt P41220 5-16, looked up, variant D12K)
Not satisfied

Does the reported Mean % difference from parent peptide (FLAG immunoreactivity) of the following substance sit strictly below 40%? C13Y: array RGS2^5–16 peptide, C13 substituted by Y (MFLAVQHDYRPM; UniProt P41220 5-16, looked up, variant C13Y)
Satisfied

----------
Molecular target: FBXO44^FBA (Homo sapiens, UniProt Q9H4M3)
Construct: we expressed and purified only this domain for all in vitro studies; 6xHis (N, cleaved yes); MBP (N, cleaved yes); made in house; host or cells: Escherichia coli Rosetta BL21 (λDE3)
Sequence (Q9H4M3 71-252 limits assumed): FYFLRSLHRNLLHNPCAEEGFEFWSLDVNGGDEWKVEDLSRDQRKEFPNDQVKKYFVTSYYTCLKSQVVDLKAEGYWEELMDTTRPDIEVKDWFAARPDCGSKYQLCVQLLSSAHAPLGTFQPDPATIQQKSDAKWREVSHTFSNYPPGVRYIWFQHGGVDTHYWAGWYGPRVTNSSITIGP
Assay: Peptide microarray (PEPperPRINT), FLAG-FBXO44^FBA binding
Settings: Table S1; RGS2^5–16 single-residue substitution; 2 μg/ml FBXO44^FBA overnight at 4 °C, PBS 0.005% Tween pH 7.4, anti-FLAG DyLight800 fluorescence; three independent experiments with three technical replicates each
propertyLabel: Mean % difference from parent peptide (FLAG immunoreactivity) (%)
Answers are plain numbers, in %.

Previously resolved entries follow.
P15D: array RGS2^5–16 peptide, P15 substituted by D (MFLAVQHDCRDM; UniProt P41220 5-16, looked up, variant P15D): 31.74
C13R: array RGS2^5–16 peptide, C13 substituted by R (MFLAVQHDRRPM; UniProt P41220 5-16, looked up, variant C13R): 35.61

Attention now shifts to the item below.
Specify reported Mean % difference from parent peptide (FLAG immunoreactivity) for the substance shown: C13N: array RGS2^5–16 peptide, C13 substituted by N (MFLAVQHDNRPM; UniProt P41220 5-16, looked up, variant C13N)
-85.38
